Assay summary: Phase 1 randomized 3-period crossover relative bioavailability study, plasma PK
Assay type: in vivo
Applied conditions: both, human, po, 50 mg
Assay readout: half-life

Measured half-life of CC#Cc1cncc(-c2ccc3c(c2)[C@@]2(N=C(C)C(N)=N2)[C@]2(CC[C@H](OC)CC2)C3)c1 : ~16 h
